- measured-target: TRPC5 channel (Homo sapiens)
- Construct: expressed in transfected cells; host or cells: HEK293/TREx (Invitrogen), tetracycline-induced
- assay-procedure: High throughput screening assay: Fluo4 cell-based fluorescence assay of intracellular Ca2+ rise
- conditions: HEK293/TREx cells inducibly expressing TRPC5, 0.027-20 μM in triplicate, NF = no IC50 curve could be fit
Each entry belongs to exactly one class, chosen by where its IC50 falls: lowest (below 200 nM), middle (200 nM to below 1000 nM), highest (1000 nM or more)

These recorded examples may help you get a feel for the data.
1. Cn1c(=O)n(CCCO)c(=O)c2c(Cc3ccccc3)c(-c3cccc(F)c3)cnc21 ... lowest
2. CC(C)Oc1cnc2c(c1Cc1ccc(F)cc1)c(=O)n(CCCO)c(=O)n2C ... lowest
3. Cn1c(=O)n(CCCO)c(=O)c2c(Cc3ccc(Cl)cc3)c(Oc3cccc(Cl)c3)cnc21 ... highest
4. Cn1c(=O)n(CCCO)c(=O)c2c(Cc3ccc(Cl)cc3)c(Oc3cncc(Cl)c3)cnc21 ... highest
5. CC(C)CC(O)c1c(Oc2cccc(OC(F)(F)F)c2)cnc2c1c(=O)n(CCCO)c(=O)n2C (stereo not shown) ... highest

Inquiry: Any idea which band `Cn1c(=O)n(CCCO)c(=O)c2c(Cc3ccc(Cl)cc3)c(Oc3cncc(F)c3)cnc21` is in?
Reply text: highest

Inquiry: Same again, this time with `CC(C)CCc1c(Oc2cccc(OC(F)(F)F)c2)cnc2c1c(=O)n(CCCO)c(=O)n2C`
Reply text: highest

Inquiry: Same again, this time with `Cn1c(=O)n(CCCO)c(=O)c2c(Cc3ccc(C(F)(F)F)nc3)c(Oc3cccc(OC(F)(F)F)c3)cnc21`
Reply text: middle

Inquiry: Same again, this time with `Cn1c(=O)n(CCCO)c(=O)c2c(Cc3ccc(Cl)cn3)c(-c3cccc(OC(F)(F)F)c3)cnc21`
Reply text: lowest

Inquiry: Same again, this time with `CC(C)Oc1cnc2c(c1Cc1ccc(Cl)cc1)c(=O)n(CCCO)c(=O)n2C`
Reply text: lowest

Inquiry: Same again, this time with `CC(C)CCc1c(-c2ccccc2C(C)C)cnc2c1c(=O)n(CCCO)c(=O)n2C`
Reply text: highest

Inquiry: Same again, this time with `Cn1c(=O)n(CCCO)c(=O)c2c(Cc3ccc(Cl)cc3)c(Oc3cccc(OC(F)(F)F)c3)cnc21`
Reply text: middle

Inquiry: Same again, this time with `Cn1c(=O)n(CCCO)c(=O)c2c(Cc3ccc(C(F)(F)F)cc3)c(Oc3cccc(C(F)(F)F)c3)cnc21`
Reply text: lowest

Inquiry: Same again, this time with `CC(C)c1ccccc1-c1cnc2c(c1Cc1ccc(Cl)cc1)c(=O)n(CCCO)c(=O)n2C`
Reply text: middle

Inquiry: Same again, this time with `Cn1c(=O)n(CCCO)c(=O)c2c(Cc3ccc(C(F)(F)F)nc3)c(Oc3cccc(Cl)c3)cnc21`
Reply text: highest

Inquiry: Same again, this time with `CC(C)CCc1c(OC(C)C)cnc2c1c(=O)n(CCCO)c(=O)n2C`
Reply text: highest

----------
Here the recorded log10(IC50) is given for each entry.
- measured-target: TRPC5 channel (Homo sapiens)
- Construct: expressed in transfected cells; host or cells: HEK293/TREx (Invitrogen), tetracycline-induced
- Sequence (Q9UL62 1-973): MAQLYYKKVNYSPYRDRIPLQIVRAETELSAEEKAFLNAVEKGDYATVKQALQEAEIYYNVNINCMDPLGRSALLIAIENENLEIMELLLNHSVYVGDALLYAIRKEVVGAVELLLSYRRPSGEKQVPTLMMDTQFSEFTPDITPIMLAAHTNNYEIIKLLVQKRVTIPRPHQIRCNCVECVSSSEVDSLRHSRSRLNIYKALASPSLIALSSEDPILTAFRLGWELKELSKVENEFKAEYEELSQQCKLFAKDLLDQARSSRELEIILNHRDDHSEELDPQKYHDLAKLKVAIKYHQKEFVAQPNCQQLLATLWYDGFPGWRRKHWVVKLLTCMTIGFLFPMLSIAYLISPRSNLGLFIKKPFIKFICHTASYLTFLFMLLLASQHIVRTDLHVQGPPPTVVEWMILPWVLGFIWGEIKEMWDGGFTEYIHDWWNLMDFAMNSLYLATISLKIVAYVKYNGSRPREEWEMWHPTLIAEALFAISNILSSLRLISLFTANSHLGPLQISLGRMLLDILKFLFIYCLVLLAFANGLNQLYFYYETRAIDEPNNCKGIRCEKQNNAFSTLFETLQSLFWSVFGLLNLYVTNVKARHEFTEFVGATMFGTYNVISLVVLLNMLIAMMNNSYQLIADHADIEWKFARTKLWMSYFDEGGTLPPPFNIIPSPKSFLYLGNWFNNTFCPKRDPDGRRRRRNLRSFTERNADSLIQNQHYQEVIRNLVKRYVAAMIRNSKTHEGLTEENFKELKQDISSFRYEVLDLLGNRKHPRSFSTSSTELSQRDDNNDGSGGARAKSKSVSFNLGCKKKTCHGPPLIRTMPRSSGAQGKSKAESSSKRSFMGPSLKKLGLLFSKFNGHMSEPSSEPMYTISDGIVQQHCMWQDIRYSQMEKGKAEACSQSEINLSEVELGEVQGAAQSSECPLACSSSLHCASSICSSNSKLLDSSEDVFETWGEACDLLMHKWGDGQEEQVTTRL
- assay-procedure: Patch clamp experiments (whole-cell, LaCl3-activated TRPC5 current)
- Type: cell-based
- conditions: whole-cell patch clamp in TRPC5-expressing HEK293 TREx cells; block of inward and outward currents in continued presence of LaCl3; IC50 estimated
Please interpret these as log10 of IC50 where IC50 is in nM.

Inquiry: What does the data say about its log10(IC50)? Entry: CC(C)CCc1c(-c2ccccc2C(C)C)cnc2c1c(=O)n(CCCO)c(=O)n2C [Compound 23]
Reply text: 1.09

Inquiry: Same again, this time with Cn1c(=O)n(CCCO)c(=O)c2c(Cc3ccc(Cl)cc3)c(-c3cccc(OC(F)(F)F)c3)cnc21 [Compound 40]
Reply text: 0.46

Inquiry: Same again, this time with CC(C)Oc1cnc2c(c1Cc1ccc(Cl)cc1)c(=O)n(CCCO)c(=O)n2C [Compound 36]
Reply text: 0.08

Inquiry: Same again, this time with CC(C)Oc1cnc2c(c1Cc1ccccc1)c(=O)n(CCCO)c(=O)n2C [Compound 29]
Reply text: 0.65

Inquiry: Same again, this time with Cc1cncc(Oc2cnc3c(c2Cc2ccc(Cl)cc2)c(=O)n(CCCO)c(=O)n3C)c1 [Compound 27]
Reply text: 1.46
